Reported values of log10 of koff for individual entries
Subject of test: T1, human [1-305]-mouse chimeric EL (human; mouse, UniProt Q9WVG5 306-500)
T1 construct: Heparin extract, captured or detected by an anti-C2-tag antibody; also called human-mouse chimeric EL
T1 sequence: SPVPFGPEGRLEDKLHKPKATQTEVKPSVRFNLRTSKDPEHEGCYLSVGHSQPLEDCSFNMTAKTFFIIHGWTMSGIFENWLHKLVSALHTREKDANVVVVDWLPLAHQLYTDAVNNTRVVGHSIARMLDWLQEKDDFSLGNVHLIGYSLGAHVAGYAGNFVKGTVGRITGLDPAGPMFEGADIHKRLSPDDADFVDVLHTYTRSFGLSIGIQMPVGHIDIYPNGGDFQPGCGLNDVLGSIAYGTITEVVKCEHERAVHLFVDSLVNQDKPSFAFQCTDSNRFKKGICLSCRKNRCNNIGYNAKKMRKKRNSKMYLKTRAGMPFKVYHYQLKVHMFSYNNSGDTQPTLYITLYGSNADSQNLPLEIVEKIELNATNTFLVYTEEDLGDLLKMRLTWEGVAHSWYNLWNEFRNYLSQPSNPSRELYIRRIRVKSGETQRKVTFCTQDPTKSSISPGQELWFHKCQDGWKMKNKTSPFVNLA
Procedure summary: Biacore; EL captured by anti-C2-tag Ab; bivalent fit
# log10 transformed; quantity=koff; unit=s⁻¹

Recorded results for 4 binders are shown here.
{"Binder": "h55A1-S7 (antibody, V domains shown, humanized) VH: QVQLVQSGSELKKPGASVKVSCKASGYTFTNYALNWVRQAPGQGLEWMGWINTYSGVGTYAGEFKGRFVFSLDTSVSTAYLQISSLKAEDTAVYYCARRGFYGRRFFDVWGKGTTVTVSS VL: DIVLTQSPASLAVSPGQRATITCKASQSVDYDVDSYMHWYQQKPGQPPKLLIYAASNLASGVPARFSGSGSGTDFTLTINPVEANDTANYYCQNTIEDPPTFGGGTKVEIK", "log10 of koff": -3.26}
{"Binder": "h55A1-F5 (antibody, V domains shown, humanized) VH: QVQLVQSGAEVKKPGASVKVSCKASGYTFTNYGMNWVRQAPGQGLEWMGWINTYSGVPTYAGDFKGRFTFTLDTSTSTAYMELSSLRSEDTAVYYCARRGYYGRRYFDVWGKGTTVTVSS VL: DIQLTQSPSSLSASVGDRVTITCKASQSVDYDVDSYMHWYQQKPGKAPKLLIYAASNLASGVPSRFSGSGSGTDFTLTISSLQPEDFATYYCQQTIEDPPTFGGGTKVEIK", "log10 of koff": -4.80}
{"Binder": "h55A1-F2 (antibody, V domains shown, humanized) VH: QVQLVQSGAEVKKPGASVKVSCKASGYTFTNYGMNWVRQAPGQGLEWMGWINTYSGVPTYAGDFKGRVTMTTDTSTSTAYMELRSLRSDDTAVYYCARRGYYGRRYFDVWGKGTTVTVSS VL: EIVMTQSPATLSVSPGERATLSCKASQSVDYDVDSYMHWYQQKPGQAPRLLIYAASNLASGIPARFSGSGSGTEFTLTISSLQSEDFAVYYCQQTIEDPPTFGGGTKVEIK", "log10 of koff": -4.59}
{"Binder": "h55A1-S1 (antibody, V domains shown, humanized) VH: QVQLVQSGSELKKPGASVKVSCKASGYTFTNYGMNWVRQAPGQGLEWMGWINTYSGVPTYAGDFKGRFVFSLDTSVSTAYLQISSLKAEDTAVYYCARRGYYGRRYFDVWGKGTTVTVSS VL: DIVLTQSPASLAVSPGQRATITCKASQSVDYDVDSYMHWYQQKPGQPPKLLIYAASNLASGVPARFSGSGSGTDFTLTINPVEANDTANYYCQQTIEDPPTFGGGTKVEIK", "log10 of koff": -3.07}

From here, focus on the item given below.
Exercise: Could you tell me which log10 of koff is on file for h16B3-S2 (antibody, V domains shown, humanized) VH: EVQLVESGGGLVQPGGSLRLSCAASGFTFSGYTMSWVRQAPGKGLEWVSEISFARDRAFYPDTVKGRFTISRDNSKNTLYLQMNSLRAEDTAVYYCARLGGRNHDYWYFDVWGQGTTVTVSS VL: DIVMTQSPDSLAVSLGERATINCRASESVEYYGTSLMQWYQQKPGQPPKLLIYAASNVESGVPDRFSGSGSGTDFTLTISSLQAEDVAVYYCQQSWKVPFTFGQGTKLEIK ?
Key: -3.66
